Listed compounds paired with reported TGI
System: CCRF-CEM leukemia
Test: NCI tumour cell line growth inhibition, 48 h
Please state the figure in µM; there is no need to write the unit.

{"columns": ["compound", "target-entity", "output-unit", "TGI"],
 "data": [
  ["COc1cc2c3c(cc(Cl)nc3c1OC)C(O)(CC(=O)c1ccccc1)C(=O)N2 (stereo not given)", "CCRF-CEM leukemia", "µM", 12.5]
]}

Moving on to another compound below.
Measured TGI for this entry O=C(c1ccc2ccccc2c1)c1c(C(F)(F)F)n([O-])c2ccc(F)cc2[n+]1=O on CCRF-CEM leukemia: 5.26

###

Listed molecules paired with reported GI50
Test system: SN12C renal
Experiment: NCI tumour cell line growth inhibition, 48 h

Observe how each entry below is paired with its result.
{"columns": ["smiles-notation", "recorded-value"],
 "data": [
  ["CCOC(=O)c1c(C)n(Cc2ccccc2)c2c1cc1oc(=O)c(=O)n3cnc2c13", "10.4 µM"],
  ["CCCCCCCCCCSC(=N)N", "5.09 µM"],
  ["C=C(C)[C@@H]1CC[C@]2(C(=O)NC(C)=O)CC[C@]3(C)[C@H](CC[C@@H]4[C@@]5(C)CCCNC(C)(C)[C@@H]5CC[C@]43C)[C@@H]12", "1.47 µM"],
  ["O=C(/C=C/c1ccco1)c1ccc(Nc2nc(Nc3ccc(F)cc3)nc(Nc3ccc(F)cc3)n2)cc1", "54.8 µM"],
  ["COc1cccc(NC2=C(Cl)C(=O)N(Cc3ccc(Cl)cc3)C2=O)c1", "2.61 µM"],
  ["O=C(/C=C/c1ccc([N+](=O)[O-])cc1)c1cccc(Nc2nc(Nc3ccccc3)nc(Nc3ccccc3)n2)c1", "26.8 µM"],
  ["Oc1ccc(Cl)cc1/C=N\\NC(=S)N/N=C/c1cc(Cl)ccc1O", "3.12 µM"],
  ["Cc1cc(Nc2nc(-c3ccncc3)nc3ccccc23)n[nH]1", "4.55 µM"],
  ["Cc1c2ccncc2c(C)c2c1[nH]c1ccc(Cl)cc12", "1.41 µM"]
]}

Moving on to another molecule below.
Measured GI50 for this entry CCCN1CCC=C(c2ccc(Nc3nc(Nc4ccccc4C(N)=O)c4cc[nH]c4n3)c(C)c2)C1 on SN12C renal: > 21.1 µM

###

Tested on: SR leukemia
Experiment: NCI tumour cell line growth inhibition, 48 h
Listed molecules paired with reported GI50

Observe how each entry below is paired with its result.
{"columns": ["molecule", "measured-property", "recorded-value"],
 "data": [
  ["Cn1cc(C2=C(c3cn(CCCCC(=N)N)c4ccccc34)C(=O)NC2=O)c2ccccc21", "GI50", "11.1 µM"],
  ["O=Cc1ccc(N2CCN(c3ccc(C=O)cc3)CC2)cc1", "GI50", "> 100 µM"]
]}

Moving on to another molecule below.
Measured GI50 for this entry COc1ccc(C2=NC(c3ccc(Cl)cc3)C(c3ccc(Cl)cc3)N2C(=O)N2CCNC(=O)C2)c(OC(C)C)c1 (stereo not drawn) on SR leukemia: 2.33 µM

###

Test system: NCI-H23 lung
Test: NCI tumour cell line growth inhibition, 48 h
Listed molecules paired with reported TGI

Observe how each entry below is paired with its result.
{"columns": ["molecule", "measured-property", "recorded-value"],
 "data": [
  ["Cc1ccc(S[C@@H](C)[C@@](O)(C(N)=O)c2ccccc2)cc1", "TGI", "> 100 µM"],
  ["C/C(CC(=O)Nc1cccc([N+](=O)[O-])c1)=N\\NC(=O)CC#N", "TGI", "> 100 µM"],
  ["O=C(C=C=Nc1ccccc1)C(=O)N=C=Cc1ccccc1", "TGI", "19.5 µM"]
]}

Measured TGI for this entry COc1ccc(CNc2nc3ccccc3nc2C(=O)O)cc1 on NCI-H23 lung: > 100 µM

Measured TGI for this entry CCCCCCCCCCCCOP(=O)(O)OP(=O)(O)OCC1OC(n2cc(C)c(=O)[nH]c2=O)CC1O (stereo not given) on NCI-H23 lung: > 100 µM

Measured TGI for this entry O=c1c2ccccc2nc(-c2ccccc2)n1NC(=S)Nc1cccc(Cl)c1 on NCI-H23 lung: > 100 µM

Measured TGI for this entry CC(N1CCOCC1)C(O)(c1ccccc1)c1ccccn1 (stereo not given) on NCI-H23 lung: > 100 µM

Measured TGI for this entry S=c1c2ccccc2c(=S)n2n1CC=CC2 on NCI-H23 lung: > 100 µM

###

System: U251 CNS
Assay: NCI tumour cell line growth inhibition, 48 h
Listed molecules paired with reported TGI
Please state the figure in µM; there is no need to write the unit.

Observe how each entry below is paired with its result.
{"columns": ["molecule", "measured-property", "output-unit", "recorded-value"],
 "data": [
  ["O=C1c2cc([N+](=O)[O-])sc2C(=O)c2c([N+](=O)[O-])csc21", "TGI", "µM", 1.01],
  ["Cn1nc(-c2ccccc2)c(C(=O)/C=C/c2ccc(Cl)cc2)c(N2CCCC2)c1=O", "TGI", "µM", 15.5],
  ["C=C(C)[C@@H]1CC[C@]2(C(=O)NC(C)=O)CC[C@]3(C)[C@H](CC[C@@H]4[C@@]5(C)CCCNC(C)(C)[C@@H]5CC[C@]43C)[C@@H]12", "TGI", "µM", 3.26],
  ["Cc1c(Cl)c(C)c(Cc2c(C)c(Cl)c(C)c(Cl)c2O)c(O)c1Cl", "TGI", "µM", 10.9],
  ["CC(=O)Nc1ccc(-c2nnc(SCC(=O)Nc3ccc(Cl)cc3)o2)cc1", "TGI", "µM", 12.9]
]}

get_value(item= O=C(CCCCCCCCC(=O)N/N=C\c1cc(Cl)ccc1O)N/N=C\c1cc(Cl)ccc1O , readout=TGI) returns 25.9

get_value(item= O=C(CCC1CCCCN1)Nc1ccc2c(c1)C(=O)c1ccc(NC(=O)CCN3CCCCC3)cc1C2=O (configuration not stated) , readout=TGI) returns 23.8

get_value(item= COc1ccc(C2=Nc3c/c(=C\c4c(O)[nH]c5cc(Cl)ccc45)ccc3=N2)cc1 , readout=TGI) returns 5.64

get_value(item= CC[C@@]1(O)C(=O)OCc2c1cc1n(c2=O)Cc2c-1nc1ccccc1c2/C=N\NC(=O)C(N)Cc1c[nH]c2ccccc12 (some centres not stated) , readout=TGI) returns 5.16

get_value(item= CC1C2(C)OCC(C#N)(C(=N)O2)C1(C#N)C#N (configuration not stated) , readout=TGI) returns 40.4

get_value(item= O=[N+]([O-])/C(C(Cl)=C(Cl)Cl)=C(/Nc1ccccc1)Sc1ccccc1 , readout=TGI) returns 27.7

get_value(item= CCCCCCCCCCSC(=N)N , readout=TGI) returns 6.72

###

Listed molecules paired with reported TGI
Tested on: A549 NSCLC
Test: NCI tumour cell line growth inhibition, 48 h

Observe how each entry below is paired with its result.
{"columns": ["molecule", "target-entity", "recorded-value"],
 "data": [
  ["N#CC(C(=O)CCCC(=O)Nc1ccc(Cl)cc1Cl)c1ccc(Cl)cc1 (stereo not given)", "A549 NSCLC", "> 100 µM"],
  ["COc1ccc(-c2nc(C(=O)c3ccccc3)n(CC(=O)c3ccc(Cl)cc3)c2-c2ccc(OC)cc2)cc1", "A549 NSCLC", "> 100 µM"],
  ["Cc1ccc(-c2n[nH]c(=O)c3noc(-c4ccc(C)cc4)c23)cc1", "A549 NSCLC", "> 100 µM"],
  ["COc1ccc(C2=Nc3c/c(=C\\c4c(O)[nH]c5cc(Cl)ccc45)ccc3=N2)cc1", "A549 NSCLC", "25.4 µM"],
  ["Cn1nc(-c2ccccc2)c(C(=O)/C=C/c2ccc(Cl)cc2)c(N2CCCC2)c1=O", "A549 NSCLC", "49.4 µM"]
]}

get_value(item= O=C(CCC1CCCCN1)Nc1ccc2c(c1)C(=O)c1ccc(NC(=O)CCN3CCCCC3)cc1C2=O (stereo not given) , readout=TGI) returns 33.4 µM

get_value(item= CCc1cc(Cc2ccc(C)c(NC(=O)C(=O)C3C(=O)NC(=O)NC3=O)c2CC)cc(C)c1NC(=O)C(=O)C1C(=O)NC(=O)NC1=O , readout=TGI) returns > 100 µM

get_value(item= CCOC(C)OC1CC(n2cc(C)c(=O)[nH]c2=O)OC1CO (stereo not given) , readout=TGI) returns > 100 µM

get_value(item= O=C(NCCCCCN1CCC2(CCCCC2)CC1)C(C1CCCCC1)C1CCCCC1 , readout=TGI) returns 16.7 µM

get_value(item= CC(=O)OCC1OC(n2c(-c3ccccc3)c(N=Nc3ccc(C)cc3)c(C)c(C#N)c2=S)C(OC(C)=O)C(OC(C)=O)C1OC(C)=O (stereo not given) , readout=TGI) returns 47 µM

get_value(item= C/C(=N/O)c1ccc(Nc2cc(-n3ccnc3)c3ccccc3n2)cc1 , readout=TGI) returns 36.4 µM

get_value(item= CN1CN(C(=O)N2CN(C)C(=O)N(C)C2)CN(C)C1=O , readout=TGI) returns > 100 µM
